Test system: A549/ATCC NSCLC
protocol-notes: NCI-60 one-dose screen, 48 h
test-conditions: 10 µM unless noted
The panel holds about 83,000 compounds, 20% with a hit somewhere; the sample as a whole holds those more often. The source made the active and inactive calls. Rule for the calls: active = growth percent below 10; inactive = the rest.
Select the correct class. Options are true (1) for active, false (0) for inactive and nothing else.

Which outcome was assigned to C=CCn1c(SCC(=O)Nc2ccc(C(=O)/C=C/c3ccc(Br)cc3)cc2)nnc1-c1c[nH]c2ccccc12 in this test?
false (0)

Could you please tell me the result logged for Cc1ccc2c(c1)Oc1nc(N)c(C#N)c(N)c1C2Sc1ccc(F)cc1 (stereo not given) in this assay?
true (1)

Could you check what this test reported for COc1cc(/C=C/C(=O)c2ccc(NC(=O)CSc3nnc(-c4ccc(-c5nc6ccc(Cl)cc6[nH]5)cc4)o3)cc2)cc(OC)c1OC ?
false (0)

Query: recorded result category for COc1cc(OC)cc(C(=O)Nc2sc3c(c2C(N)=O)CCC(=O)C3)c1 in this test
false (0)

Per the records of this test, what outcome belongs to COc1ccc(N2CCN(C3=C(Cl)C(=O)C(C)=C(C)C3=O)CC2)cc1 ?
false (0)

Test call, this compound: Brc1ccccc1/C=N/Nc1nc(N/N=C/c2ccccc2Br)nc(N2CCOCC2)n1
false (0)

Called result for Cc1cc(C)c(N2C(=O)CC(Nc3ccc(Cl)cc3Cl)C2=O)c(C)c1 (stereo not given)
false (0)

Please let me know the test result on file for CN(Cc1ccccc1)S(=O)(=O)/N=C1\NC(=O)NC1=C(Cl)Cl .
false (0)

Query: recorded result category for C#CC(=O)N(c1ccc(OC)cc1OC)C(C(=O)NCC(=O)OCC)c1cccs1 (stereo not given) in this test
false (0)

Hi, do you know how C[C@H]1c2[nH]c3ccccc3c2C[C@H]2C(=O)N(CCCCCCC(=O)NO)CC(=O)N21 came out in this test?
false (0)

Fill in: this test's call for C=CCn1c(SCC(=O)Nc2ccc(C(=O)/C=C/c3cc(OC)c(OC)c(OC)c3)cc2)nnc1-c1c[nH]c2ccccc12 is ___
false (0)

Query: recorded result category for COc1ccc(-c2nc3ccc(-c4nnc(SCC(=O)Nc5ccc(C(=O)/C=C/c6ccc(Cl)cc6)cc5)o4)cc3[nH]2)cc1 in this test
false (0)

Returns: the outcome recorded for COc1ccccc1NC1=C(Cl)C(=O)c2nc(C)ccc2C1=O in this assay.
false (0)

Tell me the recorded outcome of this test for NS(=O)(=O)c1ccc(Nc2nc(SCc3ccccc3)nc3ccccc23)cc1 .
false (0)

Which result was noted for this compound in the test: CC(=O)N1C(=S)NC(=O)C1CC(C)C (stereo not given)
false (0)

Assay outcome for O=C(Nc1cccc(C(F)(F)F)c1)c1cc(-c2ccc(F)cc2F)ccc1O : what was it?
true (1)

Each compound tested received a call. Report the one for CC1(COc2ccc3ncc(C#Cc4cncc(C(=O)Nc5cccc(C(F)(F)F)c5)c4)n3n2)COC1 .
false (0)

Would you mind telling me which call this test gave COc1cc(OC)c(/C=C/S(=O)(=O)Cc2ccc(OC)c(NCC(=O)NO)c2)c(OC)c1 ?
false (0)

Please state the recorded outcome for this compound: NC(N)=Nc1ccc(Nc2cccc(Nc3ccc(Cl)c(C(F)(F)F)c3)c2)cn1
false (0)

Which outcome was entered for the compound COc1ccc(/C(N)=N/C(N)=N/c2nc3ccccc3s2)cc1 in this test?
false (0)

###

Test system: MDA-MB-435 melanoma
protocol-notes: NCI-60 one-dose screen, 48 h (100 = growth as untreated, 0 = no growth, -100 = all killed)
test-conditions: 10 µM unless noted
About 83,000 compounds went through this panel and 20% of them were active in at least one assay; those are over-represented in the sample as a whole.
Criterion: growth meeting or surpassing 70%. Met: fulfilled. Not met: not fulfilled.

API: above_or_equal(metric=growth, cutoff=70%) for item O=S(=O)(NC1c2ccccc2C[C@H]1O)c1ccc(Cl)cc1Cl (stereo not given in full)
fulfilled

Confirm if growth reported for the compound N/C(=N\C(N)=N\c1nc2ccccc2s1)c1ccc(C(F)(F)F)cc1 is 70% or above.
fulfilled

Does the compound O=C(Nc1cccc(Cl)c1)Nc1nc2ccc([N+](=O)[O-])cc2o1 have recorded growth that is 70% or more?
not fulfilled

Reported growth at or above 70%? COc1ccc(C(=O)CSc2nc3c(c(Nc4ccc(S(N)(=O)=O)cc4)n2)CCCC3)cc1
fulfilled

Please tell me: is the compound c1cc(-c2nc3ccc4[nH]ncc4c3c3c2CCCC3)[nH]n1 at or over 70% in terms of growth?
not fulfilled

# bool: growth of O=C(Nc1nonc1-c1ccccc1)c1ccc(C(F)(F)F)cc1 >= 70%
fulfilled

I'd appreciate it if you could say whether COc1cc(-c2nn(C(C)(C)C)cc2-c2ccnc(NCCCNS(=O)(=O)c3ccc(F)cc3)n2)ccc1Cl has growth at least equal to 70%.
fulfilled

Does the reported growth for C=CC(=O)N1CCC=C(c2cc3c(N[C@H](C)c4ccccc4)ncnc3[nH]2)C1 fall at or above the 70% mark?
fulfilled

Hello, I need to know if COc1ccccc1NCc1cccn1Cc1ccc(F)cc1 has measured growth not below 70%. Thanks!
fulfilled

Assess whether reported growth for Oc1cccc2ccc(-c3nnc(SCc4ccc(O)c5ncccc45)n3-c3ccccc3)nc12 sits at 70% or higher.
not fulfilled

###

System: SN12C renal
protocol-notes: NCI-60 one-dose screen, 48 h (100 = growth as untreated, 0 = no growth, -100 = all killed)
test-conditions: 10 µM unless noted
The panel holds about 83,000 compounds, 20% with a hit somewhere; the sample as a whole holds those more often.
readout: growth (%)
Enter your answer as a number in %; do not include the unit.

Fill in: growth of Cn1ccnc1C(=O)/C=C/c1ccc(NC(=O)c2ccc(F)cc2)cc1 is ___
25

Which growth value belongs to COc1ccc(N2CCN(C3=C(Cl)C(=O)C(C)=C(C)C3=O)CC2)cc1 ?
99.3

If you can, please state the reported growth value of C=CC(=O)N1CC=C(c2cc3c(N[C@H](C)c4ccccc4)ncnc3[nH]2)CC1 .
22.4

So what's the measured growth for this one? Cc1cccc2c3c(sc12)C(c1ccc(Cl)cc1)c1c(nc(CC(=O)Nc2ccccc2)[nH]c1=O)O3 (stereo not given)
71.9

Report growth for NS(=O)(=O)c1ccc(-n2cc(-c3cccc(NC(=O)c4ccc(N5CCOCC5)c(C(F)(F)F)c4)c3)nn2)cc1 please.
43.9

###

Field: growth. Provide a value for each of the molecules that follow.
Tested on: HOP-92 NSCLC
protocol-notes: NCI-60 one-dose screen, 48 h (100 = growth as untreated, 0 = no growth, -100 = all killed)
test-conditions: 10 µM
Compounds without any hit were thinned out: in the full panel of roughly 83,000, 20% have a hit.
The figure you give is taken to be in %; do not add the unit.

// growth lookup, key: CNC(=O)c1c(NC(=O)c2cccc(C(F)(F)F)c2F)sc2c1CCC(=O)C2
-21.5

What does the record list as growth for O=C(O)c1cn(C2CC2)c2cc(N3CCN(C(=O)CN4C(=O)CSC4=O)CC3)c(F)cc2c1=O ?
104

# input molecule: O=C(c1ccc(O)cc1)[C@@H]1CN[C@@]2(C(=O)Nc3ccccc32)[C@H]1c1ccc(F)cc1 ; wanted: its growth
101

Given COc1cc(-c2nn(C(C)(C)C)cc2-c2ccnc(NCCCNS(=O)(=O)c3ccc(F)cc3)n2)ccc1Cl , state its recorded growth.
70.4

Need growth, item CN1CCN(c2ccc(/C=N/Nc3nc4ccccc4c(=O)n3-c3ccccc3)cc2)CC1
102

May I ask what growth has been recorded for CCCCCc1ccc(S(=O)(=O)Nc2cccc(-c3csc(NC(=O)CN4CCN(CCO)CC4)n3)c2)cc1 ?
59.5

Form field: reported growth of CN1CCN(Cc2ccc(NC(=O)c3cncc(C#Cc4cnc5ccc(OCC6(C)COC6)nn45)c3)cc2C(F)(F)F)CC1
-70.6

Which growth is reported for this molecule? COc1cc(/C=C2\C(=O)Nc3ccccc32)ccc1OCc1ccc(F)cc1
99.8

Name the reported growth value associated with the molecule COc1cccc(/C=C(/C)c2ccc3cccc(OC)c3[o+]2)c1O
91

Endpoint output: growth of Cc1cc(C(NC(=O)CCCCCNc2cccc3c2C(=O)N(C2CCC(=O)NC2=O)C3=O)c2ccc3c(c2)OC(F)(F)O3)c(O)c2ncccc12 (stereo not given) . Value?
4.13

###

System: UO-31 renal
protocol-notes: NCI-60 one-dose screen, 48 h (100 = growth as untreated, 0 = no growth, -100 = all killed)
test-conditions: 10 µM unless noted
Protocol: Growth inhibition of the UO-31 human tumor cell line is measured as a screen for anti-cancer activity. Cells are grown in 96 well plates and exposed to the test compound for 48 hours. Compounds are tested at a single concentration, which is 10^-5 M for most compounds. The reported endpoint is percent growth (GI% or GIPRCNT), where numbers from 0 - 100% represent growth inhibition, and numbers from -100% - 0 represent cell death. For example, a value of 40 represents 60% growth inhibition. […]
About 83,000 compounds went through this panel and 20% of them were active in at least one assay; those are over-represented in the sample as a whole.
readout: growth (%)
Reply with just the number (in %).

Endpoint output: growth of O=C(c1ccc(O)c(C(=O)N2Cc3ccc(OCCC[P+](c4ccccc4)(c4ccccc4)c4ccccc4)cc3C2)c1)N1Cc2cccc(F)c2C1 . Value?
80.6

Any idea what growth was measured for O=C(NNc1nc2cc(F)c(F)cc2n2c(CN3CC4CNCC4C3)ccc12)c1ncccn1 (centres undefined) ?
13.6

Can you look up the measured growth of CC1(C)CC[C@]23CC[C@]4(C)[C@H](CC[C@@H]5[C@@]6(C)CCCN(CO)C(C)(C)[C@@H]6CC[C@]54C)[C@H]2[C@H]1OC3 for me?
76.7

Entry under review: N#Cc1cccc(CN2CCc3ncn(Cc4ccc(Cl)cc4)c(=O)c3C2)c1 . Reported growth?
26

For the compound C#CCn1cccc1CNc1ccc(OC)cc1 , what growth is on record?
-95.4

What value of measured growth is listed for O=C(NCCn1ccnc1)c1ccc(-c2nc3ccc4[nH]ncc4c3c3c2CCCC3)cc1 ?
92.4

State the recorded growth for this entry: Cc1cccc(/C=C/C(=O)Nc2ncc(Cc3cccc(C)c3)s2)c1
35.4

Need growth of C#CCNC1CCC(c2csc(C#C)n2)=C1C (centres undefined) , thanks.
44.7

// returns reported growth for input NS(=O)(=O)c1ccc(Nc2nc(N/N=C/c3ccccn3)nc(Nc3ccccc3)n2)cc1
17.4
